Ref: patent US20240196897A1

- Test system: Argentine worker ants (Linepithema humile)
- Test summary: Aerosol spray test on adult Argentine worker ants, moribund and mortal rates
- Assay type: in vivo
- Reported conditions: spray amount 200 mg; aerosol per Formulation Example 2 (0.1 part compound); from height 60 cm; ten adult workers; seven days after spraying
Measure: Moribund and mortal rates (%) after seven days
I only need the number, in %, no unit after it.

Some entries whose results are on file:
CCS(=O)(=O)c1cc(C(F)(F)F)cnc1-c1nc2cc([S+]([O-])C(F)(F)F)ccc2o1 (stereo not drawn) | 10
CCS(=O)(=O)c1cc(C)cnc1-c1nc2cc(S(=O)(=O)C(F)(F)F)ccc2o1 | 10
CCS(=O)(=O)c1cc(C(F)(F)F)cnc1-c1nc2cc(S(=O)(=O)C(F)(F)F)ccc2o1 | 13
CCS(=O)(=O)c1cc(C)cnc1-c1nc2cc([S+]([O-])C(F)(F)F)ccc2o1 (stereo not drawn) | 3
CCS(=O)(=O)c1cc(C2CC2)cnc1-c1nc2cc(S(=O)(=O)C(F)(F)F)ccc2o1 | 100

Query string: What value of measured Moribund and mortal rates (%) after seven days is listed for CCS(=O)(=O)c1cc(C2CC2)cnc1-c1nc2cc([S+]([O-])C(F)(F)F)ccc2o1 (stereo not drawn) ?
Result string: 100
